# Experimental Details: chemical genetic growth profiling, strain panel (AID 1159580);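 further: tested at 20 µM; growth read once vehicle control cultures reached saturation at 30 °C; 1 = growth at the plate median or of vehicle wells; lower values mean less growth of the strain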
# Condition Description: S. cerevisiae deletion strains, growth OD, locus YGR078C, strain PAC10, active compounds read low
Screen size: about 5,500 compounds; about 2,000 (36%) were called active. About 18% were inconclusive and are not listed. The list shows a part of the results.
Item-by-item account of normalized growth

# example entries with known answers
COc1ccc(-c2cc(=O)c3c(O)c(OC)c(OC)cc3o2)cc1O = 0.969 (inactive)
Cn1c(=O)c2[nH]c(-c3ccc(S(=O)(=O)O)cc3)nc2n(C)c1=O = 1.01 (inactive)
O=C(O)CN(CCOCCOCCN(CC(=O)O)CC(=O)O)CC(=O)O = 1.01 (inactive)
COc1ccc(-c2cc(=O)c3c(O)c(OC)c(O[C@H]4O[C@H](CO[C@@H]5O[C@@H](C)[C@H](O)[C@@H](O)[C@H]5O)[C@@H](O)[C@H](O)[C@H]4O)cc3o2)cc1 = 0.999 (inactive)
Clc1ccc2ocnc2c1 = 1 (inactive)
O=C(O)CN(CCN(CC(=O)O)CC(=O)O)CC(=O)O = 0.82 (active)
OCC(O)Cn1c2ccccc2c2ccccc21 (stereo unspecified) = 1.02 (inactive)
CCCCCCCCCCCCSc1nnc(N)s1 = 0.999 (inactive)

If you can, please state the reported normalized growth value of O=C(O)c1cc(O)ccc1O .
1.02 (inactive)

Endpoint output: normalized growth of CC(=O)CS(=O)(=O)c1ccc(Cl)cc1 . Value?
1 (inactive)

// lookup normalized growth for NC(=S)CS(=O)(=O)c1ccc(C(F)(F)F)cc1
1.01 (inactive)
